Please respond with reported inhibition of SARS-CoV-2 cytopathic effect for every item in the list.
system: Vero E6 infected with SARS-CoV-2; assay: inhibition of SARS-CoV-2 cytopathic effect; higher = more antiviral protection, active = above 15; conditions: 10000 nM; 48 h
Express it in %; write the number only.

Ask: Read off the recorded inhibition of SARS-CoV-2 cytopathic effect for O=C(Nc1ncc(SCCN2CCCC2)s1)[C@]1(c2ccc(S(=O)(=O)C3CC3)cc2)C[C@H]1C1CCCCC1
Result: -5.6

Ask: Read off the recorded inhibition of SARS-CoV-2 cytopathic effect for COc1cc(NC(=O)c2cccc(-n3cc(NC(=O)Nc4cccc(C)c4)cn3)c2)cc(OC)c1OC
Result: -0.61

Ask: Read off the recorded inhibition of SARS-CoV-2 cytopathic effect for Cc1cn2c(N)c(Cl)cc(C(=O)NCC3CCN(CC(C)C)CC3)c2n1
Result: 0.75

Ask: Read off the recorded inhibition of SARS-CoV-2 cytopathic effect for CN(C)c1ccc(/C=C2\C(=O)Nc3ccccc32)cc1
Result: 0.95

Ask: Read off the recorded inhibition of SARS-CoV-2 cytopathic effect for CN(C)C(=O)Oc1cccc([N+](C)(C)C)c1 [neostigmine]
Result: -0.84

Ask: Read off the recorded inhibition of SARS-CoV-2 cytopathic effect for COc1ccc(OC)c(CN(C(C)=O)c2cc(F)ccc2Oc2ccccc2)c1
Result: 2.47

Ask: Read off the recorded inhibition of SARS-CoV-2 cytopathic effect for CCc1c(-c2ccccc2)c(-c2ccccc2)nn1-c1ccccc1-c1cccc(OCC(=O)O)c1
Result: -0.58

Ask: Read off the recorded inhibition of SARS-CoV-2 cytopathic effect for Cc1cc(C(N)=O)ccc1-n1c(CCC(=O)O)ccc1-c1ccc(-n2ccnc2)cc1
Result: -2.98

Ask: Read off the recorded inhibition of SARS-CoV-2 cytopathic effect for Cc1cccc(NC(=O)N[C@@H]2N=C(c3ccccc3)c3ccccc3N(C)C2=O)c1
Result: 0.03

Ask: Read off the recorded inhibition of SARS-CoV-2 cytopathic effect for C[C@]12CC[C@H](O)CC1=CC[C@@H]1[C@@H]2CC[C@]2(C)C(=O)CC[C@@H]12
Result: 1.12

Ask: Read off the recorded inhibition of SARS-CoV-2 cytopathic effect for Cn1c(=O)n(-c2ccc(C(C)(C)C#N)cc2)c2c3cc(-c4cnc5ccccc5c4)ccc3ncc21
Result: -5.4

Ask: Read off the recorded inhibition of SARS-CoV-2 cytopathic effect for CC[C@]1(O)C[C@@H]2CN(CCc3c([nH]c4ccccc34)[C@@](C(=O)OC)(c3cc4c(cc3OC)N(C)[C@H]3[C@@](O)(C(N)=O)[C@H](O)[C@]5(CC)C=CCN6CC[C@]43[C@@H]65)C2)C1 [vindesine]
Result: -2.18

The reported measurements were obtained from the supplement of paper PMC13380429.
